# METHOD: Half life in mouse liver microsome by HPLC-MS/MS analysis in presence of 0.1 uM NADPH
# Format: ADME
# DETAILS: liver microsomes
VALUE TYPE: half-life (min)
The figure you give is taken to be in min; do not add the unit.

{"columns": ["TEST SMILES", "UNIT OF MEASURE", "VALUE OBSERVED"],
 "data": [
  ["CC(C)Oc1cc(NC(=N)c2ccccn2)ccc1-c1ccc(-c2ccc(NC(=N)c3ccccn3)cc2OC(C)C)o1", "min", 26]
]}

Let us examine a further case.
Query :: Determine from records and report half-life for CCOc1cc(NC(=N)c2ccccn2)ccc1-c1ccc(-c2ccc(NC(=N)c3ccccn3)cc2OCC)o1
Result :: 15
